PBM binding z-score: recorded values
test system: LXRa homodimer (NR concentration 270 nM); assay: PBM binding z-score (relative to random genomic background probes); higher = stronger binding; sequences stand for … in GC…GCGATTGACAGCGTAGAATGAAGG
readoutName: PBM binding z-score

residues=GCTGCTAGGTCAGGTTGGTCAGCGAACGGGTACG experimentaltarget="LXRa homodimer (NR concentration 270 nM)" readoutname="PBM binding z-score" obsvalue=-0.269
residues=CTCGAAAGGTCGTGCTCCGGTGAGTATACCAAAC experimentaltarget="LXRa homodimer (NR concentration 270 nM)" readoutname="PBM binding z-score" obsvalue=0.167
residues=TAGCCTAGGTCAAGGGCCAGTATACCACGCGAAC experimentaltarget="LXRa homodimer (NR concentration 270 nM)" readoutname="PBM binding z-score" obsvalue=0.0881
residues=AGTCAATGTTCATCTAGGTAACGTAAGATATGCT experimentaltarget="LXRa homodimer (NR concentration 270 nM)" readoutname="PBM binding z-score" obsvalue=-0.229
residues=ATATGTAGATTATCGGGTCATTCAGTTTGCGCAT experimentaltarget="LXRa homodimer (NR concentration 270 nM)" readoutname="PBM binding z-score" obsvalue=1.98
residues=TCATATAGGTAGTACAGGTGAAAGTCGGCATCTA experimentaltarget="LXRa homodimer (NR concentration 270 nM)" readoutname="PBM binding z-score" obsvalue=0.38
residues=CAAACTAGGTCAAGGTCAAACTCGGTTTGTGCCA experimentaltarget="LXRa homodimer (NR concentration 270 nM)" readoutname="PBM binding z-score" obsvalue=4.45
residues=CCTAGCAGACCAGGGTCACTCAAGCATTTCGCTT experimentaltarget="LXRa homodimer (NR concentration 270 nM)" readoutname="PBM binding z-score" obsvalue=-0.131
residues=TGAATGAGGTTCAAGATCAGGGAACGTGGCGTCG experimentaltarget="LXRa homodimer (NR concentration 270 nM)" readoutname="PBM binding z-score" obsvalue=-0.757
residues=CGACCGAGGGCATGAGTTGATAGCAAATGCCGAT experimentaltarget="LXRa homodimer (NR concentration 270 nM)" readoutname="PBM binding z-score" obsvalue=-0.485
residues=CAAACTAGGTCACGAACGGTCAAAGTCGAATGAC experimentaltarget="LXRa homodimer (NR concentration 270 nM)" readoutname="PBM binding z-score" obsvalue=4.34
residues=TCTAGTTGGTCGAAGGTCACACACTCGAAATGCG experimentaltarget="LXRa homodimer (NR concentration 270 nM)" readoutname="PBM binding z-score" obsvalue=1.24
residues=CCTTACGGGTCATGAGGTTATAGCACGACGAGCG experimentaltarget="LXRa homodimer (NR concentration 270 nM)" readoutname="PBM binding z-score" obsvalue=0.379
residues=CCTACTGGGCCAAAGGTCGTTGATTCCAATGCTC experimentaltarget="LXRa homodimer (NR concentration 270 nM)" readoutname="PBM binding z-score" obsvalue=-0.124
residues=AGTCAATGTTCACTAGGTAACGTAAGATTCAGCT experimentaltarget="LXRa homodimer (NR concentration 270 nM)" readoutname="PBM binding z-score" obsvalue=-0.143
residues=CCTCGGAGGAGAACAGGAGGTCAGAGCTGCCAGA experimentaltarget="LXRa homodimer (NR concentration 270 nM)" readoutname="PBM binding z-score" obsvalue=1.57
residues=ATATGTAGGTTATCGGGTCACTCAGTTTGCGCAT experimentaltarget="LXRa homodimer (NR concentration 270 nM)" readoutname="PBM binding z-score" obsvalue=1.49
residues=ATCTCGAGGTAAAGATAGTTCAGTGAATGCAAAT experimentaltarget="LXRa homodimer (NR concentration 270 nM)" readoutname="PBM binding z-score" obsvalue=0.132
residues=GCTACAGGGTCAGCTAGAGGCCAGAGTATGGAAA experimentaltarget="LXRa homodimer (NR concentration 270 nM)" readoutname="PBM binding z-score" obsvalue=-0.26
residues=TCTATTAGTTGATTAGGGCAACCTAAACAGCGGA experimentaltarget="LXRa homodimer (NR concentration 270 nM)" readoutname="PBM binding z-score" obsvalue=0.325
residues=GAGACTGGGGCAAAGCAGGTTACCATAAGGTTGG experimentaltarget="LXRa homodimer (NR concentration 270 nM)" readoutname="PBM binding z-score" obsvalue=-0.00898
residues=CCGACTGGGGCATAAGGTTAGCATAAGCCAGCCC experimentaltarget="LXRa homodimer (NR concentration 270 nM)" readoutname="PBM binding z-score" obsvalue=-0.738
residues=CTACTAAGGTGAACAAGGTCGTTGATTACTATTC experimentaltarget="LXRa homodimer (NR concentration 270 nM)" readoutname="PBM binding z-score" obsvalue=0.193
residues=GTAACAAGGTGAATAGGTCGTTGATGAGTAGGCG experimentaltarget="LXRa homodimer (NR concentration 270 nM)" readoutname="PBM binding z-score" obsvalue=0.00254
residues=CAAACTAGGTCAAGAGGTAAAAGTCCGCTTCCCG experimentaltarget="LXRa homodimer (NR concentration 270 nM)" readoutname="PBM binding z-score" obsvalue=0.451
residues=TGAATGAGGTTATAAGATCAGGGACCGTTGCAAA experimentaltarget="LXRa homodimer (NR concentration 270 nM)" readoutname="PBM binding z-score" obsvalue=0.0374
residues=ACCTCTAGGTAACCAAGTTCAGTGAATGCCGAAC experimentaltarget="LXRa homodimer (NR concentration 270 nM)" readoutname="PBM binding z-score" obsvalue=0.553
residues=GCTAGTTGGTCAGTAAAAGGGCACACACCGGTCG experimentaltarget="LXRa homodimer (NR concentration 270 nM)" readoutname="PBM binding z-score" obsvalue=0.266
residues=CACGAAAGGTCGTGCTCAGGTGAGTATACCAAAC experimentaltarget="LXRa homodimer (NR concentration 270 nM)" readoutname="PBM binding z-score" obsvalue=0.166
residues=TGAATGAGGTTATAAGATCGGGGAACGTTGCAAA experimentaltarget="LXRa homodimer (NR concentration 270 nM)" readoutname="PBM binding z-score" obsvalue=-0.276
residues=TTACCAAGGTGAGCTGAGGTCCTTGATCCAACTC experimentaltarget="LXRa homodimer (NR concentration 270 nM)" readoutname="PBM binding z-score" obsvalue=-0.744
residues=CGAACTAGGTCATTGACGGGACAGTGAATAGTAA experimentaltarget="LXRa homodimer (NR concentration 270 nM)" readoutname="PBM binding z-score" obsvalue=0.242
residues=AGAATGAGGTTATACGTATATCAGGGAAGAAAGT experimentaltarget="LXRa homodimer (NR concentration 270 nM)" readoutname="PBM binding z-score" obsvalue=0.245
residues=TAGCATAGGTCATTGGGCCAGTATAGTACGCATC experimentaltarget="LXRa homodimer (NR concentration 270 nM)" readoutname="PBM binding z-score" obsvalue=1.27
residues=CGTCAAAGTTCAAAGTAACGTAACAGAAAGCAGC experimentaltarget="LXRa homodimer (NR concentration 270 nM)" readoutname="PBM binding z-score" obsvalue=4.32
residues=TCTTGTAGATCAGCACGTTAAGAAAGCTGGCCAA experimentaltarget="LXRa homodimer (NR concentration 270 nM)" readoutname="PBM binding z-score" obsvalue=-0.232
residues=CCTCGGAGGACAACAGGTGGTCAGAGCTGCCAGA experimentaltarget="LXRa homodimer (NR concentration 270 nM)" readoutname="PBM binding z-score" obsvalue=-0.443
residues=TAGCCTAGGTCATGCGAGCCAGTATAGTGTCGGC experimentaltarget="LXRa homodimer (NR concentration 270 nM)" readoutname="PBM binding z-score" obsvalue=0.265
residues=CGAACTAGGTCAAGAACAGTGAATCTCCGCACGC experimentaltarget="LXRa homodimer (NR concentration 270 nM)" readoutname="PBM binding z-score" obsvalue=0.155
residues=TCGAGTAGGTTACCAATGGGGCAATCAGCTTTCT experimentaltarget="LXRa homodimer (NR concentration 270 nM)" readoutname="PBM binding z-score" obsvalue=-0.627
residues=CCTACTGGGCCAAAGTCATTGATCAGTCAAAGCA experimentaltarget="LXRa homodimer (NR concentration 270 nM)" readoutname="PBM binding z-score" obsvalue=-0.412
residues=CCTACTGAGCCATTCAGAGGTCATTGATCATATG experimentaltarget="LXRa homodimer (NR concentration 270 nM)" readoutname="PBM binding z-score" obsvalue=6.83
residues=CTTTACGGGTCACTGACAGGTTATAGCATTTGGA experimentaltarget="LXRa homodimer (NR concentration 270 nM)" readoutname="PBM binding z-score" obsvalue=1.02
residues=TCTCGGATGACACGAAGGTCAGAGCTTTCCAGAG experimentaltarget="LXRa homodimer (NR concentration 270 nM)" readoutname="PBM binding z-score" obsvalue=0.495
residues=AGTCAAAGTCCAGGACGAGGTAACGTAAAGCACG experimentaltarget="LXRa homodimer (NR concentration 270 nM)" readoutname="PBM binding z-score" obsvalue=-0.518
residues=CAAACTAGGGCAAAGGTCAAAGTCGAGCCAACCA experimentaltarget="LXRa homodimer (NR concentration 270 nM)" readoutname="PBM binding z-score" obsvalue=4.3
residues=ATATGTAGGTTAAGGGTCTTTCAGGTTGGTTCGC experimentaltarget="LXRa homodimer (NR concentration 270 nM)" readoutname="PBM binding z-score" obsvalue=0.812
residues=GATACAGGGTAAGCTAGAGGCCAGAGTATGGAAA experimentaltarget="LXRa homodimer (NR concentration 270 nM)" readoutname="PBM binding z-score" obsvalue=-0.407
residues=ATCGAAAGATCGTGAGGTGAGTATACAGAAAGGC experimentaltarget="LXRa homodimer (NR concentration 270 nM)" readoutname="PBM binding z-score" obsvalue=0.0924
residues=CCAGACAGGTGAGTAGGTAACTCAGCCTCGATTA experimentaltarget="LXRa homodimer (NR concentration 270 nM)" readoutname="PBM binding z-score" obsvalue=0.0547
residues=GCAGACAGGTGTAACGCAGGTAACTCAGGGTGGC experimentaltarget="LXRa homodimer (NR concentration 270 nM)" readoutname="PBM binding z-score" obsvalue=-1.09

Values from the supplement of paper PMC6555819
